- experimental_details: In vitro cytotoxicity evaluation
- Type: cell-based
- measurement_conditions: human; LO2 cells, 32 μg/mL; read-out: Cell Viability (%)
attribute_measured: viability at 32 μg/mL (%)

> print(dat)
                                   molecule  measured
1  CC(=O)c1c(OCCCNCCCN2CCN(C)CC2)c2c(c3c1OC(C)(CCC=C(C)C)C=C3)OC(C)(CCC=C(C)C)C=C2 (stereo not shown) [Compound 9h]      71.4

###

- experimental_details: In vitro cytotoxicity evaluation
- Format: cell-based
- measurement_conditions: human; LO2 cells, 16 μg/mL; read-out: Cell Viability (%)
attribute_measured: viability at 16 μg/mL (%)

> print(dat)
                                   compound  units.of.measure  measured
1  CC(=O)c1c(OCCCNCCCN2CCN(C)CC2)c2c(c3c1OC(C)(CCC=C(C)C)C=C3)OC(C)(CCC=C(C)C)C=C2 (stereo not shown)                 %      78.4

###

- Test system: Enterococcus faecalis ATCC51299, vancomycin-resistant strain
- experimental_details: MIC, broth microdilution
- Type: cell-based
- measurement_conditions: Enterococcus faecalis ATCC51299, vancomycin-resistant; read-out: MIC E. f. 51299
One threshold, 30 µg/mL, splits the recorded MIC values: lower ones are true (1), equal or higher ones are false (0).

> print(dat)
                                    compound  assigned.class
 1  CC(=O)c1ccc2c(c1OCCCN(C)CC(C)(C)CN(C)C)C=CC(C)(CCC=C(C)C)O2 (stereo not shown)       false (0)
 2  CC[N+](CC)(CC)CCCOc1c2c(c3c(c1C(C)=O)OC(C)(CCC=C(C)C)C=C3)OC(C)(CCC=C(C)C)C=C2 (stereo not shown)        true (1)
 3  CCNCCCOc1c(C(C)=O)ccc2c1C=CC(C)(CCC=C(C)C)O2 (stereo not shown)       false (0)
 4  CC(=O)c1ccc2c(c1OCCCN1CCN(C(C)=O)CC1)C=CC(C)(CCC=C(C)C)O2 (stereo not shown)       false (0)
 5  CC(=O)c1c(OCCC[n+]2ccccc2)c2c(c3c1OC(C)(CCC=C(C)C)C=C3)OC(C)(CCC=C(C)C)C=C2 (stereo not shown)        true (1)
 6  CC(=O)c1c(OCCCNCCCN2CCN(C)CC2)c2c(c3c1OC(C)(CCC=C(C)C)C=C3)OC(C)(CCC=C(C)C)C=C2 (stereo not shown)        true (1)
 7  CNCCN(C)CCCOc1c2c(c3c(c1C(C)=O)OC(C)(CCC=C(C)C)C=C3)OC(C)(CCC=C(C)C)C=C2 (stereo not shown)        true (1)
 8  CCN(CC)CCCNCCCOc1c2c(c3c(c1C(C)=O)OC(C)(CCC=C(C)C)C=C3)OC(C)(CCC=C(C)C)C=C2 (stereo not shown)       false (0)
 9  CC[N+](CC)(CC)CCCOc1c(C(C)=O)ccc2c1C=CC(C)(CCC=C(C)C)O2 (stereo not shown)        true (1)
10  CCN(CC)CCCOc1c(C(C)=O)ccc2c1C=CC(C)(CCC=C(C)C)O2 (stereo not shown)       false (0)
11  CC(=O)c1ccc2c(c1OCCCNCCCN1CCCC1)C=CC(C)(CCC=C(C)C)O2 (stereo not shown)       false (0)
12  CC(=O)c1ccc2c(c1OCCCN1CC(C)OC(C)C1)C=CC(C)(CCC=C(C)C)O2 (stereo not shown)       false (0)
13  CC(=O)c1c(OCCCN2CC(C)OC(C)C2)c2c(c3c1OC(C)(CCC=C(C)C)C=C3)OC(C)(CCC=C(C)C)C=C2 (stereo not shown)       false (0)
14  CCN(CC)CCCOc1c2c(c3c(c1C(C)=O)OC(C)(CCC=C(C)C)C=C3)OC(C)(CCC=C(C)C)C=C2 (stereo not shown)        true (1)
15  CC(=O)c1ccc2c(c1OCCCNCCN(C)C)C=CC(C)(CCC=C(C)C)O2 (stereo not shown)       false (0)
16  CC(=O)c1c(OCCCSC(=N)N)c2c(c3c1OC(C)(CCC=C(C)C)C=C3)OC(C)(CCC=C(C)C)C=C2 (stereo not shown)       false (0)

###

- System: Pseudomonas aeruginosa ATCC27853, penicillin-susceptible strain
- experimental_details: MIC, broth microdilution
- Assay type: cell-based
- measurement_conditions: Pseudomonas aeruginosa ATCC27853; read-out: MIC P. a. 27853
- Method: All target derivatives were assessed for their in vitro antibacterial activities using a broth microdilution assay to test their minimum inhibitory concentrations (MICs) against six Gram-positive strains (S. aureus ATCC31007, S. aureus ATCC25923, S. aureus ATCC43300, E. faecalis ATCC29212, B. subtilis ATCC9372, and S. epidermidis ATCC12228) and four Gram-negative strains (A. baumannii ATCC19606, K. pneumonia ATCC10031, E. coli ATCC25922, and P. aeruginosa ATCC27853). […]
attribute_measured: MIC

> print(dat)
                                    compound     measured
 1  CC(=O)c1ccc2c(c1OCCCNCCN(C)C)C=CC(C)(CCC=C(C)C)O2 (stereo not shown)     32 µg/mL
 2  CC[N+](CC)(CC)CCCOc1c2c(c3c(c1C(C)=O)OC(C)(CCC=C(C)C)C=C3)OC(C)(CCC=C(C)C)C=C2 (stereo not shown)  > 128 µg/mL
 3  CC[N+](CC)(CC)CCCOc1c(C(C)=O)ccc2c1C=CC(C)(CCC=C(C)C)O2 (stereo not shown)  > 128 µg/mL
 4  CCN(CC)CCCOc1c2c(c3c(c1C(C)=O)OC(C)(CCC=C(C)C)C=C3)OC(C)(CCC=C(C)C)C=C2 (stereo not shown)  > 128 µg/mL
 5  CC(=O)c1ccc2c(c1OCCCN(C)CC(C)(C)CN(C)C)C=CC(C)(CCC=C(C)C)O2 (stereo not shown)    128 µg/mL
 6  CC(=O)c1c(OCCC[n+]2ccccc2)c2c(c3c1OC(C)(CCC=C(C)C)C=C3)OC(C)(CCC=C(C)C)C=C2 (stereo not shown)  > 128 µg/mL
 7  CC(=O)c1ccc2c(c1OCCCN1CC(C)OC(C)C1)C=CC(C)(CCC=C(C)C)O2 (stereo not shown)  > 128 µg/mL
 8  CC(=O)c1c(OCCCN2CC(C)OC(C)C2)c2c(c3c1OC(C)(CCC=C(C)C)C=C3)OC(C)(CCC=C(C)C)C=C2 (stereo not shown)  > 128 µg/mL
 9  CC(=O)c1ccc2c(c1OCCCN1CCN(C(C)=O)CC1)C=CC(C)(CCC=C(C)C)O2 (stereo not shown)  > 128 µg/mL
10  CCNCCCOc1c(C(C)=O)ccc2c1C=CC(C)(CCC=C(C)C)O2 (stereo not shown)  > 128 µg/mL
11  CC(=O)c1c(OCCCNCCCN2CCN(C)CC2)c2c(c3c1OC(C)(CCC=C(C)C)C=C3)OC(C)(CCC=C(C)C)C=C2 (stereo not shown)     16 µg/mL
12  CC(=O)c1c(OCCCSC(=N)N)c2c(c3c1OC(C)(CCC=C(C)C)C=C3)OC(C)(CCC=C(C)C)C=C2 (stereo not shown)  > 128 µg/mL
13  CNCCN(C)CCCOc1c2c(c3c(c1C(C)=O)OC(C)(CCC=C(C)C)C=C3)OC(C)(CCC=C(C)C)C=C2 (stereo not shown)  > 128 µg/mL
14  CC(=O)c1ccc2c(c1OCCCNCCCN1CCCC1)C=CC(C)(CCC=C(C)C)O2 (stereo not shown)     16 µg/mL
15  CCN(CC)CCCNCCCOc1c2c(c3c(c1C(C)=O)OC(C)(CCC=C(C)C)C=C3)OC(C)(CCC=C(C)C)C=C2 (stereo not shown)     32 µg/mL
16  CCN(CC)CCCOc1c(C(C)=O)ccc2c1C=CC(C)(CCC=C(C)C)O2 (stereo not shown)     32 µg/mL

###

MIC listing for selected molecules.
- System: Enterococcus faecalis ATCC29212, vancomycin-susceptible strain
- experimental_details: MIC, broth microdilution
- Type: cell-based
- measurement_conditions: Enterococcus faecalis ATCC29212; read-out: MIC E. f. 29212
attribute_measured: MIC (µg/mL)

> print(dat)
                                   molecule                            assayed.system  units.of.measure  result.operator  measured
1  CC[N+](CC)(CC)CCCOc1c(C(C)=O)ccc2c1C=CC(C)(CCC=C(C)C)O2 (stereo not shown)  Enterococcus faecalis ATCC29212, vancomycin-susceptible strain             µg/mL                =        64
2  CC(=O)c1c(OCCCNCCCN2CCN(C)CC2)c2c(c3c1OC(C)(CCC=C(C)C)C=C3)OC(C)(CCC=C(C)C)C=C2 (stereo not shown)  Enterococcus faecalis ATCC29212, vancomycin-susceptible strain             µg/mL                =         1
3  CCN(CC)CCCNCCCOc1c2c(c3c(c1C(C)=O)OC(C)(CCC=C(C)C)C=C3)OC(C)(CCC=C(C)C)C=C2 (stereo not shown)  Enterococcus faecalis ATCC29212, vancomycin-susceptible strain             µg/mL                =         1
4  CCNCCCOc1c(C(C)=O)ccc2c1C=CC(C)(CCC=C(C)C)O2 (stereo not shown)  Enterococcus faecalis ATCC29212, vancomycin-susceptible strain             µg/mL                =         8
5  CC(=O)c1c(OCCCN2CC(C)OC(C)C2)c2c(c3c1OC(C)(CCC=C(C)C)C=C3)OC(C)(CCC=C(C)C)C=C2 (stereo not shown)  Enterococcus faecalis ATCC29212, vancomycin-susceptible strain             µg/mL                >       128
6  CNCCN(C)CCCOc1c2c(c3c(c1C(C)=O)OC(C)(CCC=C(C)C)C=C3)OC(C)(CCC=C(C)C)C=C2 (stereo not shown)  Enterococcus faecalis ATCC29212, vancomycin-susceptible strain             µg/mL                =         8
7  CCN(CC)CCCOc1c(C(C)=O)ccc2c1C=CC(C)(CCC=C(C)C)O2 (stereo not shown)  Enterococcus faecalis ATCC29212, vancomycin-susceptible strain             µg/mL                =        32
